# target desc: B1R receptor of the rat (rB1R) (Rattus norvegicus)
# Construct: expressed in transfected cells; host or cells: CHO K1 cells (Chinese hamster ovary), stably transfected
# Sequence (P97583 whole entry): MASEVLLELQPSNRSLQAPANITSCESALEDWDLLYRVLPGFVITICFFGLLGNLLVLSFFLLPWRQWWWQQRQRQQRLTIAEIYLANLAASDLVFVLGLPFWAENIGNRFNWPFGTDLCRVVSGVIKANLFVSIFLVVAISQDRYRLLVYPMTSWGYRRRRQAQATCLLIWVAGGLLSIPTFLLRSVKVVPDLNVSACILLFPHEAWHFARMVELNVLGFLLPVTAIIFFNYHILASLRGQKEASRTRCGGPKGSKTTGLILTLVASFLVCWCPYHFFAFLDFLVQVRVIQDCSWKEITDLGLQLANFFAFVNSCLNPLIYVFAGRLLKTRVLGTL
# method description: Functional FLIPR Ca2+ assay on the bradykinin 1 receptor, rat (rB1R CHO K1 cells)
# Format: cell-based
# experimental conditions: test substance 10 μM; CHO K1 cells transfected with rat B1R gene; agonist Des-Arg9-bradykinin at EC80; % inhibition compared with maximum achievable inhibition; read-out: B1R antagonism, rat [10 μM] % inhibition

[
  {
    "compound": "Cc1cccc(C2c3ccsc3CCN2C(=O)CCC2CCCCN2S(=O)(=O)c2cc(C)c(Cl)cc2C)c1 (stereo not shown)",
    "endpoint unit": "%",
    "inhibition at 10 µM": 105
  },
  {
    "compound": "COc1cc(C)c(S(=O)(=O)N2CCCCC2COCC(=O)N2CCc3onc(CN4CCOCC4)c3C2)c(C)c1 (stereo not shown)",
    "endpoint unit": "%",
    "inhibition at 10 µM": 101
  },
  {
    "compound": "COc1cc(C)c(S(=O)(=O)N(C)CCOCC(=O)N2CCc3sc(CN4CCN(C)CC4)cc3C2)c(C)c1C",
    "endpoint unit": "%",
    "inhibition at 10 µM": 99
  },
  {
    "compound": "CN1CCN(Cc2cc3c(s2)CCN(C(=O)CCCC2CCCCN2S(=O)(=O)c2cccc4ccccc24)C3)CC1 (stereo not shown)",
    "endpoint unit": "%",
    "inhibition at 10 µM": 99
  }
]

----------
# target desc: human B1R receptor (hB1R) (Homo sapiens)
# Construct: expressed in transfected cells; host or cells: CHO K1 cells (Chinese hamster ovary), stably transfected
# Sequence (P46663 whole entry): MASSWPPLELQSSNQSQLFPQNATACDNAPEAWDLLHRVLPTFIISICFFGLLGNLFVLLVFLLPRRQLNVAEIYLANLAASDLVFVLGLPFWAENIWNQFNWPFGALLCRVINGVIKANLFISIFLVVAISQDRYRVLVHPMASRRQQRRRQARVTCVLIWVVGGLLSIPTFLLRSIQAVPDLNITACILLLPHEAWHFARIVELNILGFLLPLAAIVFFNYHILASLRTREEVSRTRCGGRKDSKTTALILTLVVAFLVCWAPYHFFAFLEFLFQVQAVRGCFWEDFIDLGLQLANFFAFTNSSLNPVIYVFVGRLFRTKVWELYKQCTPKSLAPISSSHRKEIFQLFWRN
# method description: Functional FLIPR Ca2+ assay on the bradykinin 1 receptor, human (hB1R CHO K1 cells)
# Type: cell-based
# experimental conditions: test substance 10 μM; CHO K1 cells transfected with human B1R gene; agonist Lys-Des-Arg9-bradykinin at EC80; % inhibition compared with maximum achievable inhibition; read-out: B1R antagonism, human (10 μM] % inhibition

[
  {
    "compound": "Cc1cccc(Cl)c1S(=O)(=O)N1CCCC[C@H]1COCC(=O)N1CCc2sc(CN3CCCCC3)cc2C1",
    "target desc": "human B1R receptor (hB1R) (Homo sapiens)",
    "inhibition at 10 µM, %": 100
  },
  {
    "compound": "COc1cc(C)c(S(=O)(=O)N2CCCCC2COCC(=O)N2CCc3sccc3C2c2ccccc2C)c(C)c1 (stereo not drawn)",
    "target desc": "human B1R receptor (hB1R) (Homo sapiens)",
    "inhibition at 10 µM, %": 64
  },
  {
    "compound": "COc1cc(C)c(S(=O)(=O)N2CCCCC2COCC(=O)N2CCc3sccc3C2c2cccc(C)c2)c(C)c1 (stereo not drawn)",
    "target desc": "human B1R receptor (hB1R) (Homo sapiens)",
    "inhibition at 10 µM, %": 48
  },
  {
    "compound": "COc1cc(C)c(S(=O)(=O)N2CCCCC2COCC(=O)N2CCc3sccc3C2c2ccncc2)c(C)c1 (stereo not drawn)",
    "target desc": "human B1R receptor (hB1R) (Homo sapiens)",
    "inhibition at 10 µM, %": 100
  },
  {
    "compound": "COc1cc(C)c(S(=O)(=O)N2CCCCC2CCC(=O)N2CCc3nc(Cc4ccncc4)sc3C2)c(C)c1 (stereo not drawn)",
    "target desc": "human B1R receptor (hB1R) (Homo sapiens)",
    "inhibition at 10 µM, %": 64
  },
  {
    "compound": "Cc1cc(S(=O)(=O)N2CCCCC2CCC(=O)N2CCc3sccc3C2c2ccccc2)c(C)cc1Cl (stereo not drawn)",
    "target desc": "human B1R receptor (hB1R) (Homo sapiens)",
    "inhibition at 10 µM, %": 43
  }
]
